# systemUnderTest: full-length beta-Catenin (Uniprot ID P35222) (Homo sapiens, UniProt P35222)
# Construct: 10 nM full-length beta-Catenin (Uniprot ID P35222)
# Sequence (P35222 whole entry): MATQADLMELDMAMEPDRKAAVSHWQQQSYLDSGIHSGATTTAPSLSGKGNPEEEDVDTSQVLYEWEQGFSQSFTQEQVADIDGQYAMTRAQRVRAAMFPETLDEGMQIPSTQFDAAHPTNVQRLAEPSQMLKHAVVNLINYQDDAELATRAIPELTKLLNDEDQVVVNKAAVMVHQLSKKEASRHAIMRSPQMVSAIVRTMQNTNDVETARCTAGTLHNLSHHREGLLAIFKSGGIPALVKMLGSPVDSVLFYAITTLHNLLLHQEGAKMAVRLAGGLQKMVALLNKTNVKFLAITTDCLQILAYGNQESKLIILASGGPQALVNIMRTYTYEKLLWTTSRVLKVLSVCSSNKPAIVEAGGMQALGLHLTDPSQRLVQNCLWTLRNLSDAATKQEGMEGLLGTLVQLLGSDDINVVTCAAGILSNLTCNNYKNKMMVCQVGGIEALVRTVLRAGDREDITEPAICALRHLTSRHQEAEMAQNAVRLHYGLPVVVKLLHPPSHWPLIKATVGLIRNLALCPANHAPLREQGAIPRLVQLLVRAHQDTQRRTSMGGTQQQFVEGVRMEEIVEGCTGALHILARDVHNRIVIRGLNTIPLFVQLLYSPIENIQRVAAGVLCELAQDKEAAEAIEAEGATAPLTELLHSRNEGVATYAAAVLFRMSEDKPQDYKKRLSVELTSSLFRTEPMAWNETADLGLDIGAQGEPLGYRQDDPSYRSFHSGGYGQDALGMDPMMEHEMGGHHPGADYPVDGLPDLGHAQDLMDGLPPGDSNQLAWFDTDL
# assayName: Fluorescence polarization IC50 (beta-catenin / 5FAM-TCF4 10-53 competition)
# Assay type: binding
# experimentalConditions: FP EC50 (nM), fluorescence polarization, beta-catenin
quantityKind: IC50 (nM)

compound: C[C@@H]1NC(=O)[C@H](C)NC(=O)[C@H](CC(=O)O)NC(=O)[C@H](CC(=O)O)NC(=O)C2(CCCC=CCCCOC(=O)N3CC[C@@](C(=O)N[C@@H](Cc4ccsc4)C(=O)N[C@@H](Cc4csc5ccccc45)C(=O)N[C@@H](C(N)=O)[C@H](C)O)(C3)NC(=O)[C@H](CC(N)=O)NC(=O)[C@H](Cc3ccccc3)NC1=O)CCCC=CC[C@]1(CCCN1C(=O)CN=[N+]=[N-])C(=O)N[C@@H](CC(=O)O)C(=O)N[C@@H](CC(C)(C)C)C(=O)N2 (stereo partly shown)
resultNumber: 14
